target: HIV Env of isolate 6240_08_TA5_4622 (clade B) (HIV); test: cell-based or functional assay
Listed here are binders together with their documented IC50 (µg/ml) with constrains.
Return type: number; implicit unit µg/mL.

binder	units-of-measure	IC50 (µg/ml) with constrains
ePGDM13 (antibody, V domains shown) VH: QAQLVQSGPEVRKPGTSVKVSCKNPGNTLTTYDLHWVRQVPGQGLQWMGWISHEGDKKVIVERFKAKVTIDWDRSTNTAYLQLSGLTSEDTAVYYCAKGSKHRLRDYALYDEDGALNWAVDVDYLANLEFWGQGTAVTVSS VL: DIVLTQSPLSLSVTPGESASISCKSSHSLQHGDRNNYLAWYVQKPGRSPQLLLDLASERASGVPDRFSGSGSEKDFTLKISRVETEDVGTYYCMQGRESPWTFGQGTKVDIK	µg/mL	3.16

Q: Tell us which IC50 (µg/ml) with constrains value is on record for PGDM1400 (antibody, V domains shown) VH: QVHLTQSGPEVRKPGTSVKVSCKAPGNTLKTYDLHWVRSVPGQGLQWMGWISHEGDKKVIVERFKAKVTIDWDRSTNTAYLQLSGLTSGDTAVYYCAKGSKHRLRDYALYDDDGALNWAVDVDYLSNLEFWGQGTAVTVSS VL: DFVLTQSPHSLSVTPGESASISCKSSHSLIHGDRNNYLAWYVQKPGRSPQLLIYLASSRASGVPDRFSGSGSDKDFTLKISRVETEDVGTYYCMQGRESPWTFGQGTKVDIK
Ans: 52.4

Q: Tell us which IC50 (µg/ml) with constrains value is on record for ePGDM9 (antibody, V domains shown) VH: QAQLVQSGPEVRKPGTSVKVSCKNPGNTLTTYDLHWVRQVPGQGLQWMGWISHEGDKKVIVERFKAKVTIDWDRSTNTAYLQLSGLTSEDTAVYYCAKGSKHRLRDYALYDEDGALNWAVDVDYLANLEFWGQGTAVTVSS VL: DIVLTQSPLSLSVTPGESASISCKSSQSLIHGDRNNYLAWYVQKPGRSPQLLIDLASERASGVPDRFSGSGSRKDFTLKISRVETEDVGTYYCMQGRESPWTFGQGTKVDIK
Ans: 1.65

Q: Tell us which IC50 (µg/ml) with constrains value is on record for ePGDM5 (antibody, V domains shown) VH: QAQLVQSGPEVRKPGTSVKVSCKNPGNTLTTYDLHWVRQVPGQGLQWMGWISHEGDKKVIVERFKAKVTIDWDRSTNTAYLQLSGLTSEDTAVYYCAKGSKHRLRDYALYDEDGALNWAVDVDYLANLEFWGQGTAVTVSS VL: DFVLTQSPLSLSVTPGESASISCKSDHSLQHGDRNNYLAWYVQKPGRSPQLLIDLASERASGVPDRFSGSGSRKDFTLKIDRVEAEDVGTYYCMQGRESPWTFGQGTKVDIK
Ans: 2.02
